# Test system: Escherichia coli
# ASSAY_TEXT: Antibacterial activity against Escherichia coli SANK 70569 (NIHJ JC-2)
# Assay type: functional
VALUE_KIND: MIC (µg/mL)
Numbers only, in µg/mL.

Solved entries:
>>> print(df.to_string())
                                 smiles_str  value_kind      u  assay_value
0  CCCCCC[C@H]1OC(=O)CNC(=O)[C@H]([C@H](C)O)NC(=O)[C@H](CO)NC(=O)[C@H]([C@H](C)CC)NC(=O)[C@H](CC(C)C)N(C)C(=O)[C@@H]1C         MIC  µg/mL         12.5
1  CCCCCC[C@H]1OC(=O)CNC(=O)[C@H](CC)NC(=O)[C@H](CO)NC(=O)[C@H]([C@H](C)CC)NC(=O)[C@H](CC(C)C)N(C)C(=O)[C@@H]1C         MIC  µg/mL           25
2  CCCCCCCC[C@H]1OC(=O)CNC(=O)[C@H]([C@H](C)O)NC(=O)[C@H](CO)NC(=O)[C@H]([C@H](C)CC)NC(=O)[C@H](CC(C)C)N(C)C(=O)[C@@H]1C         MIC  µg/mL         3.13

The compound listed as `CCCCCCCCCC[C@H]1OC(=O)CNC(=O)[C@H]([C@H](C)O)NC(=O)[C@H](CO)NC(=O)[C@H]([C@H](C)CC)NC(=O)[C@H](CC(C)C)N(C)C(=O)[C@@H]1C` has a reported MIC of 1.56
